test protocol: qHTS assay for small molecules that induce genotoxicity in human embryonic kidney cells expressing luciferase-tagged ATAD5 - cell viability (AID 651634); also: nearly all actives have a fitted effect of over 25% in size
condition details: HEK293T ATAD5-luc cells viability, CellTiter-Fluor, 15.5 h; series mostly up to 83.3 µM
From the text: National Center for Advancing Translational Sciences [NCATS] NIH Chemical Genomics Center [NCGC] U.S. Environmental Protection Agency [EPA] National Institutes of Environmental Health Sciences [NIEHS] National Toxicology Program [NTP] U.S. Food and Drug Administration [FDA] Enhanced Level of Genome Instability Gene 1 (ELG1; human ATAD5) protein levels increase in response to various types of DNA damage. […]
Inconclusive results are not listed. The source made the active and inactive calls. Calls follow the shape of the full dose curve.
Select the correct class. Options are 1.0 (active), 0.0 (inactive) and nothing else.

Reference set, count: 5
> print(dat)
                                   compound  class.name
1    CCn1cc(C(=O)O)c(=O)c2cnc(N3CCNCC3)nc21         0.0
2             C=CC(=O)OCCOCCOCCOCCOC(=O)C=C         1.0
3  CCOc1ccc(N=Nc2ccc(/C=C/c3ccc(N=Nc4ccc(OCC)cc4)cc3S(=O)(=O)O)c(S(=O)(=O)O)c2)cc1         1.0
4              O=[N+]([O-])c1ccc2[nH]ncc2c1         0.0
5            CN1CCC(N(Cc2cccs2)c2ccccc2)CC1         0.0

Would you kindly look at the next entry?
Prompt line: Hello, I am checking results. What call was entered for `CCOc1ccc(O)cc1` ?
Response line: 0.0
